Measured property: pKa
Lab note: jot down the number only; don't add units.

query: Entry under review: O=C(c1ccccc1)c1ccc2n1CCC2C(=O)O (centres undefined) . Reported pKa?
result: 3.5

query: Which pKa is reported for this compound? CCn1nc(C(=O)O)c(=O)c2cc3c(cc21)OCO3
result: 4.7

query: Given Cc1cccc(Nc2ccccc2C(=O)O)c1C , state its recorded pKa.
result: 4.5

query: Request the reported pKa associated with Cc1ccc(C(=O)c2ccc(CC(=O)O)n2C)cc1
result: 3.5

---

Assign class by pKa: not lower than 5 means t; lower than 5 means f.

query: Hello, I need to know if CN(C)[C@@H]1C(O)=C(C(N)=O)C(=O)[C@@]2(O)C(O)=C3C(=O)c4c(O)cccc4[C@@](C)(O)C3[C@H](O)C12 (some centres not stated) has measured pKa not below 5. Thanks!
result: t

query: Quick check, pKa >= 5? CCCCCCCCCC(=O)OC(CC(=O)O)C[N+](C)(C)C (configuration not stated)
result: f

query: Textbook exercise: given the entry COc1ccc2c3c1O[C@H]1[C@@H](O)C=CC4[C@@H](C2)NCC[C@@]341 (some centres not stated) , state whether its pKa is greater than or equal to 5.
result: t

query: Reported pKa at or above 5? CCCCCCCC(=O)OC(CC(=O)O)C[N+](C)(C)C (configuration not stated)
result: f

query: Could you tell me if the measured pKa of CCCC(=O)OC(CC(=O)O)C[N+](C)(C)C (configuration not stated) reaches 5 or more?
result: f

query: Given O=C(O)c1cccnc1 , state whether its pKa is at least 5.
result: f
